- Tested target: T1, HTRA4, P83105
- T1 sequence (P83105 378-476, limits assumed, looked up): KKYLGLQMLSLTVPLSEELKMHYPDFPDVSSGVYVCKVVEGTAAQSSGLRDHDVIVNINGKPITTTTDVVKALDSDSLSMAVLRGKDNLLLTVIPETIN
- Protocol: holdup assay
- Parameters: key: below the threshold = too weak to quantify, mostly under pKd 3.1 to 4
- Assay context: plain residues with an end cap or a label only (N-terminal biotin on a linker: ado-ado)
// label = label 1 if pKd is not less than 4, otherwise label 0

> print(dat)
                         binder    class
1    EIPAQSPTCV [FZD10, Q9ULW2]  label 1
2   QSYPSKHDYV [CLDN18, P56856]  label 1
3    GEDRSPPTAL [MKNK1, Q9BUB5]  label 0
4   SLNANEVEWF [RNF130, Q86XS8]  label 0
5  ARGPPRESEV [FAM110D, Q8TAY7]  label 0
6  PTPDLPQTRV [KLHDC7A, Q5VTJ3]  label 0
7    ILRKSTTTTV [PRR16, Q569H4]  label 1
8    DPAESMESLV [PTPRG, P23470]  label 0
9  PSHPRLQTHV [KIRREL2, Q6UWL6]  label 0

The measurements presented in this section are drawn from paper PMC9482650.
